- System: M14 melanoma
- method: NCI tumour cell line growth inhibition, 48 h
experimentalEndpoint: TGI

The following molecules have reported results that may help.
Cc1nc2cccc([N+](=O)[O-])c2c(NCCCN(C)C)c1C ... > 100 µM
O=C(O)CSc1nnc(COc2ccc(Cl)cc2)n1-c1ccccc1 ... > 100 µM

// next item, TGI requested
What measured TGI goes with `Cc1ccc(-c2c(C#N)c(-c3ccccc3)n(NS(=O)(=O)c3ccccc3)c(=O)c2C#N)cc1` ? > 100 µM

---

- Test system: CAKI-1 renal
- method: NCI tumour cell line growth inhibition, 48 h
Catalogue of compounds with associated TGI

What measured TGI goes with Clc1ccc(C2N3CCCCC3[C@@H]3c4[nH]c5ccccc5c4CCN23)cc1 (stereo partly drawn) ? > 100 µM

And for `CN(C)/N=N/c1nc2c(c(=O)n(C)c(=O)n2C)n1C` ? > 100 µM

And for C[N+]1=C2[B-](C(C)(C)C)=[N+](C(C)(C)C)[B-]2(C(C)(C)C)[N+](C)=C2[B-](C(C)(C)C)=[N+](C(C)(C)C)[B-]21C(C)(C)C (stereo not drawn) ? > 100 µM

---

- Tested on: SW-620 colon
- method: NCI tumour cell line growth inhibition, 48 h
Catalogue of molecules with associated TGI

COc1cccc(-c2cc(=O)c3ccccc3o2)c1N ... > 100 µM
COc1ccc(-n2c(=O)c3[nH]cnc3n(-c3ccc(OC)cc3)c2=S)cc1 ... > 100 µM

// next item, TGI requested
What measured TGI goes with CCN1CC2=C(NC(=S)NC2c2ccc(Cl)cc2)/C(=C/c2ccc(Cl)cc2)C1 (stereo not drawn) ? > 100 µM

---

- System: SNB-75 CNS
- method: NCI tumour cell line growth inhibition, 48 h
*1 amine or outer side, *2 acyl side, *3 side chain or, on linkers, in order; H or OH if unused. Where a SMILES comes first, the peptide text is derived from it. Bridges are numbered along the chain shown (N, C = ends). [ ]: non-standard residue; d: D form. The star is where a group is joined. ξ: configuration not given here. X34 = O=C(C(CCCCNO[*:3])N[*:1])[*:2]; Fmoc = O=C(OCC1c2ccccc2-c2ccccc21)*; ξW = NC(Cc1c[nH]c2ccccc12)C(=O)O; ξP = O=C(O)C1CCCN1
Threshold rule: TGI greater than or equal to 6 µM is Criterion met; below that, Criterion not met.

# count of solved cases: 5
COc1ccccc1N/C(=C\C(=O)C(=O)NC12CC3CC(CC(C3)C1)C2)c1ccccc1 ... Criterion met
Cc1ccc(S(=O)(=O)N(CCOc2ccc(/C(N)=N/Cl)cc2)CCOc2ccc(/C(N)=N\Cl)cc2)cc1 ... Criterion met
OCC1CCCCCCCCCCC12SCCCS2 (stereo unspecified) ... Criterion met
CCNCCNc1cc(-c2ccc(C(=O)OC)cc2)c(C#N)c2nc3ccccc3n12 ... Criterion not met
CN1C(=O)C2C(=O)N(Cc3ccccc3)CC(=O)N2c2cccnc21 (stereo unspecified) ... Criterion met

Shift focus to the following entry.
Is TGI for NC(=O)CNC(=O)C1CCCN1C(=O)C1CCCCNOC(=O)CC[C@@H](NC(=O)OCC2c3ccccc3-c3ccccc32)C(=O)NC(Cc2c[nH]c3ccccc23)C(=O)N1 (stereo partly specified) (Fmoc-[dE][ξW][X34][ξP]G-NH2; ester 1-3) at or above 6 µM? Criterion met

Taken from PubChem BioAssay (NCI).
